Biological target: TNFRSF9, Q07011
Experiment: Kd (SPR)
pKd: −log10 of the molar value.
parameter.measured: pKd

binder: unnamed (protein) chain 1: EVQLVQSGAEVKKPGESLRISCKGSGYSFSTYWISWVRQMPGKGLEWMGKIYPGDSYTNYSPSFQGQVTISADKSISTAYLQWSSLKASDTAMYYCARGIGVFDYWGQGTLVTVSS chain 2: SYELTQPPSVSVSPGQTASITCSGDNIGDQYAHWYQQKPGQSPVLVIYQDKNRPSGIPERFSGSNSGNTATLTISGTQAMDEADYYCATYTGFGSLAVFGGGTKLTVL
recorded.value: 7.48
--
binder: unnamed (protein) chain 1: EVQLVQSGAEVKKPGESLRISCKGSGYSFSTYWISWVRQMPGKGLEWMGKIYPGDSYTNYSPSFQGQVTISADKSISTAYLQWSSLKASDTAMYYCARGIGIFDYWGQGTLVTVSS chain 2: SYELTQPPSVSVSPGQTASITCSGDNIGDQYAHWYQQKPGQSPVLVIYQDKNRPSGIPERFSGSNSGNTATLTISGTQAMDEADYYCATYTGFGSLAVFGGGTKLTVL
recorded.value: 6.89
--
binder: unnamed (protein) chain 1: EVQLVQSGAEVKKPGESLRISCKGSGYSFSTYWISWVRQMPGKGLEWMGKIYPGDSYTNYSPSFQGQVTISADKSISTAYLQWSSLKASDTAMYYCTRGVGIFDYWGQGTLVTVSS chain 2: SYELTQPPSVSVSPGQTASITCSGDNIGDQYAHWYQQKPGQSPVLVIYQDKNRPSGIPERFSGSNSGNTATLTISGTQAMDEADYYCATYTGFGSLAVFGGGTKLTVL
recorded.value: 7.03
--
binder: unnamed (protein) chain 1: EVQLVQSGAEVKKPGESLRISCKGSGYTFSDYWISWVRQMPGKGLEWMGKIYPGDSYTNYSPSFQGQVTISADKSISTAYLQWSSLKASDTAMYYCARGYGIFDYWGQGTLVTVSS chain 2: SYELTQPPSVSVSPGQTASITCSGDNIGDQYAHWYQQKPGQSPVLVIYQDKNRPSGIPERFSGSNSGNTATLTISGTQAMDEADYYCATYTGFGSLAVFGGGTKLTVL
recorded.value: 6.92
--
binder: unnamed (protein) chain 1: EVQLVQSGAEVKKPGESLRISCKGSGYSFSTYWISWVRQMPGKGLEWMGKIYPGDSYTNYSPSFQGQVTISADKSISTAYLQWSSLKASDTAMYYCSRGSGIFDYWGQGTLVTVSS chain 2: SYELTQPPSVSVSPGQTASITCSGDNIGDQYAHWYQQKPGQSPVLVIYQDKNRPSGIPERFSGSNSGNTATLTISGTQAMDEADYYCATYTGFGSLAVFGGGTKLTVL
recorded.value: 6.53
